These entries and their values trace back to paper PMC12410356.

- System: E. multilocularis metacestode vesicles
- assayNotes: Phosphoglucose isomerase (PGI) release assay (damage-marker release) on metacestode vesicles
- Assay type: cell-based, Echinococcus multilocularis
- protocolConditions: overview screen, 10 μM, singlets, 5 days, relative to 0.1 % Triton X-100, DMSO subtracted
The entries below come with measured PGI d5 (relative PGI release) values attached.
readout: PGI d5 (relative PGI release) (%)

COc1ccc(NS(=O)(=O)c2ccc(Cl)s2)cn1 [MMV1580499]
0.09331
CCCCN1C[C@H](O)[C@@H](O)[C@H](O)[C@H]1CO [MMV1782098]
-0.9049
CC[C@H]1OC(=O)[C@H](C)[C@@H](O[C@H]2C[C@@](C)(OC)[C@@H](O)[C@H](C)O2)[C@H](C)[C@@H](O[C@@H]2O[C@H](C)C[C@H](N(C)C)[C@H]2O)[C@](C)(O)C[C@@H](C)C(=O)[C@H](C)[C@@H](O)[C@]1(C)O [MMV003137]
1.971
CCCCc1ccc(S(=O)(=O)Nc2cc(C)on2)cc1 [MMV1782108]
-2.561
FC(F)(F)c1cc(C(F)(F)F)c2ccc3nc(-c4nnco4)cn3c2n1 [MMV690555]
0.9496
Nc1c(C(=O)NCc2ccco2)c2nc3ccccc3nc2n1CCN1CCCCC1 [MMV099714]
2.984
CCCCC(CC)CNC(=N)NC(=N)NCCCCCCNC(=N)NC(=N)NCC(CC)CCCC (centres unmarked) [alexidine, reference compound]
68.8052
CCC(C)n1ncn(-c2ccc(N3CCN(c4ccc(OCC5COC(Cn6cncn6)(c6ccc(Cl)cc6Cl)O5)cc4)CC3)cc2)c1=O (centres unmarked) [MMV637528]
-2.417
CC(C)(C)c1ccc(C(=O)NC(=O)N2CCCc3ccccc32)cc1 [MMV1782212]
-2.428
NC(=O)[C@@H]1CC[C@@H]2CN1C(=O)N2OS(=O)(=O)O [MMV1613560]
-1.526
O=C(NCc1ccc(F)cc1)c1c(O)c2ncccc2[nH]c1=O [MMV1782097]
0.7945
COc1ccc2nc(-c3ccccc3)cc(O)c2c1 [MMV011565]
5.903
CC(C)(C)c1cc(CCC(=O)N2CCC2)cc(C(C)(C)C)c1O [MMV1229204]
-1.987
COc1cc(NC(=O)CN2C(=O)NC(c3ccccc3)(c3ccccc3)C2=O)cc(OC)c1 [MMV1578572]
-1.463
C[C@@H](NC(=O)c1ccccc1-c1ccccc1)B(O)O [MMV1582493]
-2.006
Nc1nnnn1CCOc1c2[nH]c3ccc(Cl)cc3c2cc2c1[nH]c1ccc(Cl)cc12 [MMV1633966]
3.53
CCc1cc(Cc2cnc(N)nc2N)cc2c1N(C)CCC2C (centres unmarked) [MMV1582490]
9.437
N#CCN1C(=O)COc2cc(F)c(N3C(=O)c4ccccc4C3=O)cc21 [MMV1579785]
-1.9012
c1cnc(NCc2ccc(CNc3ncccn3)cc2)nc1 [MMV1580490]
0.6457
CN(Cc1ccc(C(C)(C)C)cc1)Cc1cccc2ccccc12.Cl [MMV637104]
-1.862
CC(C)=CCC/C(C)=C\CNCCNC1C2CC3CC(C2)CC1C3 (centres unmarked) [MMV687273]
0.6754
Nc1nc2c(ncn2[C@@H]2O[C@H](CO)[C@@H](O)[C@H]2F)c(=O)[nH]1 [MMV1633677]
-0.3308
O=C(NC(=O)N1CCCc2ccccc21)c1ccc(Cl)cc1Cl [MMV1782218]
-2.44
Cl.NC1(C(=O)O)CCP(=O)(O)CC1 (centres unmarked) [MMV1593538]
-1.639
CCCCCCCCCN1C[C@@H](O)[C@H](O)[C@@H](O)[C@@H]1CO [MMV1593513]
-0.861
O=C(CC1Sc2ncnn2C1=O)Nc1ccc(Br)cc1 (centres unmarked) [MMV214956]
-1.614
Cc1ncc([N+](=O)[O-])n1CC(O)CN1CCOCC1 (centres unmarked) [MMV1613562]
0.195
COc1cc(Cc2cnc(N)nc2N)cc(OC)c1OC [MMV000028]
-3.0237
CNc1nc(=O)[nH]cc1F [MMV1782388]
-3.006
c1cc(CN2CCCNCCNCCCNCC2)ccc1CN1CCCNCCNCCCNCC1 [MMV1580502]
-0.2909
CC[C@H](NC(=O)[C@H](C)NC)C(=O)N1C[C@@H](O)C[C@H]1Cc1c(-c2[nH]c3cc(F)ccc3c2C[C@@H]2C[C@H](O)CN2C(=O)[C@H](CC)NC(=O)[C@H](C)NC)[nH]c2cc(F)ccc12 [MMV1557856]
-1.122
CN(C)CCCOc1ccc(-c2ccc3ncc4c(c3c2)n(C2CCOCC2)c(=O)n4C)cn1 [MMV1580483]
-0.0428
O=C(Nc1nnc(-c2ccccc2)o1)c1ccc(F)cc1 [MMV1578578]
-0.5299
CN(C/C=C/C#CC(C)(C)C)Cc1cccc2ccccc12 [MMV1634359]
-1.48
CC(C)Cn1c(=O)n(C)c(=O)c2c(-c3cncn3C)n(Cc3cccc4ccccc34)nc21 [MMV1581559]
-0.3605
